Tested on: SUDIPGXIII (diffuse intrinsic pontine glioma line)
Experiment summary: growth inhibition (% activity, log2 RLU normalised to DMSO / staurosporine); higher = more growth inhibition
Run conditions: 33 µM
Hi there, I'd appreciate the recorded growth inhibition for every entry that follows.

Known growth inhibition results, listed for orientation:
Molecule	Measurement
CC[C@@H]1/C=C(\C)C[C@H](C)C[C@H](OC)[C@H]2O[C@@](O)(C(=O)C(=O)N3CCCC[C@H]3C(=O)O[C@H](/C(C)=C/[C@@H]3CC[C@H](Cl)[C@H](OC)C3)[C@H](C)[C@@H](O)CC1=O)[C@H](C)C[C@@H]2OC	5.19%
CN(C)CCC(c1ccc(Br)cc1)c1ccccn1 (stereo not drawn)	1.63%

For every listed record, write down its growth inhibition.
1. CCN(CCCc1ccccc1)CCCc1ccccc1
2. CN(C)CCCC1(c2ccc(F)cc2)OCc2cc(C#N)ccc21 (stereo not drawn)

A:
-0.1%
0.506%

For every listed record, write down its growth inhibition.
1. C[C@H]1[C@H](NC(=O)/C(=N\OC(C)(C)C(=O)O)c2csc(N)n2)C(=O)N1S(=O)(=O)O
2. C[C@]12CC[C@@H]3c4ccc(O)cc4CC[C@H]3[C@@H]1CC[C@@H]2O
3. CCCSc1nc(N[C@@H]2C[C@H]2c2ccc(F)c(F)c2)c2nnn([C@@H]3C[C@H](OCCO)[C@@H](O)[C@H]3O)c2n1
4. Clc1ccc(C(Cn2ccnc2)OCc2ccsc2Cl)c(Cl)c1 (stereo not drawn)
5. COc1ccc(CC(C)NCC(O)c2ccc(O)c(NC=O)c2)cc1 (stereo not drawn)
6. CCOc1ccc2nc3cc(N)ccc3c(N)c2c1
7. O=C([O-])[C@H](O)[C@@H](O)[C@H](O)[C@H](O)CO.[Na+]

A:
["1.38%", "1.49%", "0.841%", "5.65%", "-1.79%", "1.33%", "-0.611%"]

For every listed record, write down its growth inhibition.
1. C[C@@H](O)[C@H]1C(=O)N2C(C(=O)O)=C(S[C@@H]3CN[C@H](C(=O)N(C)C)C3)[C@H](C)[C@H]12
2. CC1(C)O[C@@H]2C[C@H]3[C@@H]4C[C@H](F)C5=CC(=O)C=C[C@]5(C)[C@@]4(F)[C@@H](O)C[C@]3(C)[C@]2(C(=O)CO)O1
3. O.O=[Si]=O.O=[Si]=O.O=[Si]=O.O=[Si]=O.[O]=[Mg].[O]=[Mg].[O]=[Mg]
4. Oc1c(Cl)cc(Cl)c2cccnc12
5. C[C@H](CS)C(=O)N1CCC[C@H]1C(=O)O

A:
["0.717%", "-0.393%", "0.62%", "2.6%", "-0.989%"]

For every listed record, write down its growth inhibition.
1. NNC(=O)c1ccncc1.Nc1ccc(C(=O)O)c(O)c1
2. CCCCCCCCCC(=O)NC1C(Oc2c3cc4cc2Oc2ccc(cc2Cl)C(OC2OC(CO)C(O)C(O)C2NC(C)=O)C2NC(=O)C(NC(=O)C4NC(=O)C4NC(=O)C(Cc5ccc(c(Cl)c5)O3)NC(=O)C(N)c3ccc(O)c(c3)Oc3cc(O)cc4c3)c3ccc(O)c(c3)-c3c(OC4OC(CO)C(O)C(O)C4O)cc(O)cc3C(C(=O)O)NC2=O)OC(CO)C(O)C1O (stereo not drawn)
3. C[C@]12CC[C@@H]3c4ccc(O)cc4CC[C@H]3[C@@H]1C[C@@H](O)[C@@H]2O
4. N[C@H](Cc1ccccc1)C(=O)O
5. CN1CC(=O)N2[C@H](c3ccc4c(c3)OCO4)c3[nH]c4ccccc4c3C[C@@H]2C1=O
6. O=C(N[C@H](CO)[C@H](O)c1ccc([N+](=O)[O-])cc1)C(Cl)Cl
7. NC(=O)N1c2ccccc2CC(=O)c2ccccc21
8. NC(=O)Cc1cccc(C(=O)c2ccccc2)c1N

A:
1. -1.36%
2. 2.06%
3. 1.55%
4. 2.11%
5. 2.73%
6. -0.883%
7. -0.579%
8. 0.258%

====

Hi there, I'd appreciate the recorded growth inhibition for every entry that follows.
Test system: HNSC
Experiment summary: growth inhibition (% activity, log2 RLU normalised to DMSO / staurosporine); higher = more growth inhibition
Run conditions: 33 µM
Answers are plain numbers, in %.

Molecule	Tested on	Output unit	Measurement
CC1=C(CC(=O)O)c2cc(F)ccc2/C1=C\c1ccc([S+](C)[O-])cc1 (stereo not given)	HNSC	%	-0.224
C[C@@H](O)[C@H]1C(=O)N2C(C(=O)OCOC(=O)C(C)(C)C)=C(SC3CN(C4=NCCS4)C3)[C@H](C)[C@H]12	HNSC	%	-0.363
CN1CCC(=C2c3ccccc3CCc3sccc32)CC1	HNSC	%	1.57

For every listed record, write down its growth inhibition.
1. O=S(=O)(O)c1cc(O)ccc1O
2. CC1=C(C(=O)O)N2C(=O)[C@@H](NC(=O)[C@H](N)c3ccccc3)[C@H]2SC1
3. CC(C)(C)c1ccc(C(O)CCCN2CCC(C(O)(c3ccccc3)c3ccccc3)CC2)cc1 (stereo not given)
4. c1ccc(-c2ccc(C(c3ccccc3)n3ccnc3)cc2)cc1 (stereo not given)
5. C[C@]12CC[C@@H]3c4ccc(O)cc4CC[C@H]3[C@@H]1CCC2=O
6. COc1ccc2cccc(CCNC(C)=O)c2c1
7. Cc1ccc(C(=O)Nc2ccc(CN3CCN(C)CC3)c(C(F)(F)F)c2)cc1C#Cc1cnc2cccnn12

A:
1. 13.9
2. -2.54
3. 0.144
4. 11.5
5. 1.29
6. -2.84
7. 62.7

====

Test system: DIPGX29 (H3.3 K27M diffuse intrinsic pontine glioma line)
Experiment summary: growth inhibition (% activity, log2 RLU normalised to DMSO / staurosporine); higher = more growth inhibition
Run conditions: 33 µM
Hi there, I'd appreciate the recorded growth inhibition for every entry that follows.
Give bare numbers, in %.

Compound string	Measurement
N#CC1(c2ccc(NC(=O)c3cccnc3NCc3ccncc3)cc2)CCCC1	1.93
CCCCc1oc2ccccc2c1C(=O)c1cc(I)c(OCCN(CC)CC)c(I)c1	11.5
CCN(CC)CCOC(=O)C1(C2CCCCC2)CCCCC1	-1.15
Cc1onc(-c2ccccc2Cl)c1C(=O)N[C@@H]1C(=O)N2[C@@H]1SC(C)(C)[C@@H]2C(=O)O	-0.728

For every listed record, write down its growth inhibition.
1. CS(=O)(=O)c1ccc([C@@H](O)[C@@H](CO)NC(=O)C(Cl)Cl)cc1
2. C[C@@H]1O[C@@H]1P(=O)(O)O
3. O=c1n(CCCN2CCN(c3cccc(Cl)c3)CC2)nc2ccccn12

A:
[7.76, -0.0235, 3.64]

====

Test system: HGGX39 (paediatric high-grade glioma line)
Experiment summary: growth inhibition (% activity, log2 RLU normalised to DMSO / staurosporine); higher = more growth inhibition
Run conditions: 33 µM
Measured metric: growth inhibition (%)
Give bare numbers, in %.

Known growth inhibition results, listed for orientation:
Compound	Measured metric	Output unit	Measurement
COc1ccc(C(=O)CC(=O)c2ccc(C(C)(C)C)cc2)cc1	growth inhibition	%	-2.78
NC(=O)OCC(COC(N)=O)c1ccccc1	growth inhibition	%	0.666
CN(C)CCCOc1nn(Cc2ccccc2)c2ccccc12	growth inhibition	%	18.9

For every listed record, write down its growth inhibition.
1. CC(N)C12CC3CC(CC(C3)C1)C2 (configuration not stated)
2. COC(=O)C1=C(C)NC(C)=C(C(=O)OCCN(C)Cc2ccccc2)C1c1cccc([N+](=O)[O-])c1 (configuration not stated)
3. CCC(C)C1OC2(CCC1C)CC1CC(CC=C(C)C(OC3CC(OC)C(OC4CC(OC)C(O)C(C)O4)C(C)O3)C(C)C=CC=C3COC4C(O)C(C)=CC(C(=O)O1)C34O)O2 (configuration not stated)

A:
1. 1.62
2. 6.81
3. 3.17

Q: Give its growth inhibition value. Item: CC[C@H](C)[C@H](N)C1=N[C@H](C(=O)N[C@@H](CC(C)C)C(=O)N[C@H](CCC(=O)O)C(=O)N[C@H](C(=O)N[C@H]2CCCCNC(=O)[C@H](CC(N)=O)NC(=O)[C@@H](CC(=O)O)NC(=O)[C@H](Cc3cnc[nH]3)NC(=O)[C@@H](Cc3ccccc3)NC(=O)[C@H]([C@@H](C)CC)NC(=O)[C@@H](CCCN)NC2=O)[C@@H](C)CC)CS1
A: 2.77

====

Hi there, I'd appreciate the recorded growth inhibition for every entry that follows.
Test system: SUDIPGIV (diffuse intrinsic pontine glioma line)
Experiment summary: growth inhibition (% activity, log2 RLU normalised to DMSO / staurosporine); higher = more growth inhibition
Run conditions: 33 µM
Numbers only, in %.

Known growth inhibition results, listed for orientation:
Molecule	Tested on	Measured metric	Measurement
CC(=O)OCC[N+](C)(C)C	SUDIPGIV	growth inhibition	1.04
CC(=O)[C@H]1CC[C@H]2[C@@H]3C=CC4=CC(=O)CC[C@@]4(C)[C@@H]3CC[C@]12C	SUDIPGIV	growth inhibition	2.11
CCOC(=O)OC(C)OC1=C(C(=O)Nc2ccccn2)N(C)S(=O)(=O)c2ccccc21 (stereo not given)	SUDIPGIV	growth inhibition	-2.47
O=C1c2c(O)ccc(O)c2C(=O)c2c(NCCNCCO)ccc(NCCNCCO)c21	SUDIPGIV	growth inhibition	59.9

Let us examine a further case.
Q: Give its growth inhibition value. Item: CN1CCC[C@@H]1CCO[C@](C)(c1ccccc1)c1ccc(Cl)cc1
A: 0.591
